biological target: wt-CFTR (Homo sapiens, UniProt P13569); assay: Flow cytometry on permeabilized BHK-21 cells overexpressing wt-CFTR; type: cell-based; parameters: expressed in transfected cells; details: compared to negative control nanobody
Sequence (P13569 whole entry): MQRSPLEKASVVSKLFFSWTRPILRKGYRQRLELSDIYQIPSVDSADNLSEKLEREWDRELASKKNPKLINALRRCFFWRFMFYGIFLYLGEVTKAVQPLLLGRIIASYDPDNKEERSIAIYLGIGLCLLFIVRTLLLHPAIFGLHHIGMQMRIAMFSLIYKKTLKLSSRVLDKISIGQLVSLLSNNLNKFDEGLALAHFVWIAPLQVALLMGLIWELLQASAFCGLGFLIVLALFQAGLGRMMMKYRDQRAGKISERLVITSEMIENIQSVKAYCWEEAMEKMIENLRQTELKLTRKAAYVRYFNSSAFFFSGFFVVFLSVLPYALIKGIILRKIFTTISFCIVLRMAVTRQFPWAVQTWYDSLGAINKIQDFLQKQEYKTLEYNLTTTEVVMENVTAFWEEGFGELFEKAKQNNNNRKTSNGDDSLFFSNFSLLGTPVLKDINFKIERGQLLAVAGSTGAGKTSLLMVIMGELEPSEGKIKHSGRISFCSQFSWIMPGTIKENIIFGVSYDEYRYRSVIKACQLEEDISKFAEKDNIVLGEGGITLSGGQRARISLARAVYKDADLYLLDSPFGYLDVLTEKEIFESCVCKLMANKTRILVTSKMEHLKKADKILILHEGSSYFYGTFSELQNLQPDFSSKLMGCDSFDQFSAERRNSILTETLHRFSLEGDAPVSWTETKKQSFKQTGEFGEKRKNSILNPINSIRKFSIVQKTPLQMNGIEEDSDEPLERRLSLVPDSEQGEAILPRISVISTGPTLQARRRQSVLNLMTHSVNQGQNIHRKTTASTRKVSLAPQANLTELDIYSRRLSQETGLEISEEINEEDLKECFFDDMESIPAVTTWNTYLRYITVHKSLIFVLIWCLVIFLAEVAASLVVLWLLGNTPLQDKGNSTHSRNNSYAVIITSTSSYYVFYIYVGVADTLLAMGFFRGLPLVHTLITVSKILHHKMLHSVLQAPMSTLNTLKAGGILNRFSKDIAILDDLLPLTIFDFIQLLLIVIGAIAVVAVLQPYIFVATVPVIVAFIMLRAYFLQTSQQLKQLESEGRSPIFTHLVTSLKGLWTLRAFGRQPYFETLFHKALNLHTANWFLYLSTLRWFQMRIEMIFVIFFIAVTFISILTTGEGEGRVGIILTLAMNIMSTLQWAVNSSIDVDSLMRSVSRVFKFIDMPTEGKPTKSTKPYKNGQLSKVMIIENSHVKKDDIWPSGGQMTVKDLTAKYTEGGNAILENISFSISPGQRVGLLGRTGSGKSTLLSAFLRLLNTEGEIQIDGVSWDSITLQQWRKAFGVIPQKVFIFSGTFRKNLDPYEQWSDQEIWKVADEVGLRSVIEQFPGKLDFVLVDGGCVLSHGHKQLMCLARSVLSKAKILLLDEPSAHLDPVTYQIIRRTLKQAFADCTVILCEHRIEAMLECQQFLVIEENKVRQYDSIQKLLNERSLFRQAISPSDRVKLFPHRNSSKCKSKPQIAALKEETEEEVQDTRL
ASSAY METRIC: labelling of BHK-21 cells overexpressing wt-CFTR

T8: nanobody, SEQ ID NO:7, binds epitope 2 including F508, stabilizes WT CFTR but not F508del (protein, T8 Nanobody amino acid sequence) VHH: QVQLQESGGGLVQPGGSLRLSCAASGSTSSINAMGWYRQAPGKQREPVAISSSGGDTRYAEPVKGRFTISRDNAQNKVYLQMNSLKPEDTAVYYCWLNWGRTSVNSWGQGTQVTVSS ... increased labelling
T4: nanobody, SEQ ID NO:6, binds epitope 2 including F508, stabilizes wild type CFTR (protein, T4 Nanobody amino acid sequence) VHH: QVQLQESGGGLVQAGGSLRLSCAASGSTFAIIAMGWYRQAPGKQRELVAVISTGDTRYADSVKGRFTISRDNAKNTVYLQMDSLRPEDTAVYYCNAAVQVRDYRNYWGQGTQVTVSS ... increased labelling
T2a: NBD1-specific CFTR-stabilizing nanobody, SEQ ID NO:3, binds epitope 1 (protein, T2a Nanobody amino acid sequence) VHH: QVQLQESGGGLVQAGGSLRLSCAASGSIFRIDAMGWYRQAPGKQRELVAHSTSGGSTDYADSVKGRFTISRDNAKNTVYLQMNSLKPEDTAVYYCNADVRTRWYASNNYWGQGTQVTVSS ... increased labelling
